Consider the following binders and their measured pKd readings.
target system: T1, cSNK:BSA conjugate (bovine, head-to-tail cyclized; conjugated to BSA carrier)
T1 construct: also called BSA-cSNK
T1 sequence (P02769 25-607 limits assumed): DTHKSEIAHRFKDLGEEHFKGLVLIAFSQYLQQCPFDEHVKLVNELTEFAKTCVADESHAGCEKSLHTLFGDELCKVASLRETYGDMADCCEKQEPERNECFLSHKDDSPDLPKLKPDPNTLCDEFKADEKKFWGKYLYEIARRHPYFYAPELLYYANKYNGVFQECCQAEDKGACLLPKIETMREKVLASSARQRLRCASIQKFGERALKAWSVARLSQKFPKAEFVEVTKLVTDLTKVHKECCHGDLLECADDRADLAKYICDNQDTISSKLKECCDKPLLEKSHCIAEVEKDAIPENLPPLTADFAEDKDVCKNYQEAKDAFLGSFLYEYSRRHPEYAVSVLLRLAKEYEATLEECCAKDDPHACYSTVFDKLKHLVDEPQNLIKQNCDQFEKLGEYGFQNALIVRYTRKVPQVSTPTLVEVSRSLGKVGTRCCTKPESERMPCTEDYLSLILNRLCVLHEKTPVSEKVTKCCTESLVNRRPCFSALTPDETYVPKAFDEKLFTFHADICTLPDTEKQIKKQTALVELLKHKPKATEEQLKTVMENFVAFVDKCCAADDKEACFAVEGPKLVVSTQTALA
test description: BLI (Octet), 1:1 model, BSA-cSNK
Scale note: pKd = -log10(concentration in M).

[
  {
    "binder": "hu5E3-IgG2 (antibody, V domains shown, human IgG2/kappa; also called humanized 5E3 IgG2) VH: QVQLQQSGPEVKKPGASVKISCKASGYIFTSYYIQWVIHAPGQGLEWIGWIYPGNVNTKYNEKFKGKATLTADKSSSTAYMELSSLTSEDTAVYFCARMDYEAHYWGQGTTVTVSS VL: DIQMTQSPSSLSASVGDRVTITCRASQEISGYLTWLQQKPEGAIKRLIYAASTLDSGVPKRFSGSRSGSDYSLTISSLQPEDFATYNCLQYANYPRTFGGGTKLEIK",
    "pKd": 9.49
  },
  {
    "binder": "HuΔ5E3-IgG2 (KQR) (antibody, V domains shown, KQR framework 2 variant of hu5E3 on human IgG2) VH: QVQLQQSGPEVKKPGASVKISCKASGYIFTSYYIQWVKQRPGQGLEWIGWIYPGNVNTKYNEKFKGKATLTADKSSSTAYMELSSLTSEDTAVYFCARMDYEAHYWGQGTTVTVSS VL: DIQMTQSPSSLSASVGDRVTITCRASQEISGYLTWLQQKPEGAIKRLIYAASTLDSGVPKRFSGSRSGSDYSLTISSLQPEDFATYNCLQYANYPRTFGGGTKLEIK",
    "pKd": 9.65
  }
]

Now look at this one.
What the record says about HuΔ5E3-IgG1 (KQR) (antibody, V domains shown, human IgG1; also called hu5E3 IgG1 KQR; huΔ5E3 KQR Mutation) VH: QVQLQQSGPEVKKPGASVKISCKASGYIFTSYYIQWVKQRPGQGLEWIGWIYPGNVNTKYNEKFKGKATLTADKSSSTAYMELSSLTSEDTAVYFCARMDYEAHYWGQGTTVTVSS VL: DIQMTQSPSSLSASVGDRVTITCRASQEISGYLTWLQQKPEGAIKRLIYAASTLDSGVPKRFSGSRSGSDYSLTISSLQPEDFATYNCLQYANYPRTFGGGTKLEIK : pKd is 8.73
